Source listed as ChEMBL document CHEMBL1127419.

- measured_on: Translocator protein (Rattus norvegicus)
- assay_explanation: Displacement of [3H]-PK 11195 from rat peripheral (mitochondrial) benzodiazepine receptor
Sorting guide: entries reporting IC50 beneath 40 nM go in the criterion met pile, the rest go in the criterion not met pile.

>  <query_smiles>
CN(C)C(=O)OC1=C(c2ccccc2F)Sc2ccccc2-n2cccc21

>  <measured_on>
Translocator protein (Rattus norvegicus)

>  <assigned_category>
criterion met

$$$$
>  <query_smiles>
CC(=O)OC1=C(c2ccccc2)Sc2cc(C)ccc2-n2cccc21

>  <measured_on>
Translocator protein (Rattus norvegicus)

>  <assigned_category>
criterion not met

$$$$
>  <query_smiles>
CC(=O)OC1=C(c2ccccc2F)Sc2ccccc2-n2cccc21

>  <measured_on>
Translocator protein (Rattus norvegicus)

>  <assigned_category>
criterion met

$$$$
>  <query_smiles>
CC(=O)OC1=C(c2ccc(Cl)cc2)Sc2ccccc2-n2cccc21

>  <measured_on>
Translocator protein (Rattus norvegicus)

>  <assigned_category>
criterion met

$$$$
>  <query_smiles>
CN(C)C(=O)OC1=C(c2ccccc2)Sc2c(Cl)cccc2-n2cccc21

>  <measured_on>
Translocator protein (Rattus norvegicus)

>  <assigned_category>
criterion met

$$$$
>  <query_smiles>
CC(=O)OC1=C(c2ccc(F)cc2)Sc2ccccc2-n2cccc21

>  <measured_on>
Translocator protein (Rattus norvegicus)

>  <assigned_category>
criterion met

$$$$
>  <query_smiles>
CC(=O)OC1=C(c2ccccc2)Sc2ccc(C)cc2-n2cccc21

>  <measured_on>
Translocator protein (Rattus norvegicus)

>  <assigned_category>
criterion not met

$$$$

====

- measured_on: Translocator protein (Rattus norvegicus, UniProt P16257)
- Sequence (P16257 whole entry, looked up): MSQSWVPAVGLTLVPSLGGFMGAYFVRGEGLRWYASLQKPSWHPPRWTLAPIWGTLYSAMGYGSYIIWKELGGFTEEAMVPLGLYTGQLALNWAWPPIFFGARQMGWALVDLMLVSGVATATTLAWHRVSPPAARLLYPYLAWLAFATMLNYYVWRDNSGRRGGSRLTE
- assay_explanation: Displacement of [3H]-PK 11195 from rat peripheral (mitochondrial) benzodiazepine receptor
pIC50: −log10 of the molar value.

>  <query_smiles>
COc1ccc(C2=C(OC(=O)c3cc(OC)c(OC)c(OC)c3)c3cccn3-c3cc(C(F)(F)F)ccc3S2)cc1

>  <pIC50>
4.00

$$$$
>  <query_smiles>
COc1ccc(C2=C(OC(=O)c3cccnc3)c3cccn3-c3ccccc3S2)cc1

>  <pIC50>
4.00

$$$$
>  <query_smiles>
CCC(=O)OC1=C(c2ccc(OC)cc2)Sc2ccccc2-n2cccc21

>  <pIC50>
7.53

$$$$
>  <query_smiles>
CCC(=O)OC1=C(c2ccccc2)Sc2ccccc2-n2cccc21

>  <pIC50>
7.18

$$$$
>  <query_smiles>
CC(=O)OC1=C(c2ccccc2)Sc2ccc(C)cc2-n2cccc21

>  <pIC50>
6.17

$$$$
>  <query_smiles>
CN(C)C(=O)OC1=C(c2ccccc2F)Sc2ccccc2-n2cccc21

>  <pIC50>
7.51

$$$$
>  <query_smiles>
COc1ccc(C2=C(OC(=O)N(C)C)c3cccn3-c3ccccc3S2)cc1

>  <pIC50>
8.04

$$$$
>  <query_smiles>
COc1ccc(C2=C(OC(=O)c3ccncc3)c3cccn3-c3ccccc3S2)cc1

>  <pIC50>
4.00

$$$$
>  <query_smiles>
CC(=O)OC1=C(c2ccccc2)Sc2ccccc2-n2cccc21

>  <pIC50>
7.71

$$$$
>  <query_smiles>
CC(=O)OC1=C(c2ccc(Cl)cc2)Sc2ccccc2-n2cccc21

>  <pIC50>
7.52

$$$$

====

- measured_on: Translocator protein (Rattus norvegicus, UniProt P16257)
- assay_explanation: Displacement of [3H]-PK 11195 from rat peripheral (mitochondrial) benzodiazepine receptor
pIC50: −log10 of the molar value.
# pIC50 per record follows

>  <compound>
CCCC(=O)OC1=C(c2ccccc2)Sc2ccccc2-n2cccc21

>  <pIC50>
7.67

$$$$
>  <compound>
COc1ccc(C2=C(OC(C)=O)c3cccn3-c3cccc(Cl)c3S2)cc1

>  <pIC50>
7.69

$$$$
>  <compound>
COc1ccc(C2=C(OC(=O)N(C)C)c3cccn3-c3cc(Cl)ccc3S2)cc1

>  <pIC50>
6.78

$$$$
>  <compound>
CS(=O)(=O)OC1=C(c2ccccc2)Sc2ccccc2-n2cccc21

>  <pIC50>
7.24

$$$$
>  <compound>
COc1ccc(C2=C(OC(=O)N(C)C)c3cccn3-c3cc(C(F)(F)F)ccc3S2)cc1

>  <pIC50>
6.53

$$$$
>  <compound>
COc1ccc(C2=C(OC(C)=O)c3cccn3-c3ccccc3S2(=O)=O)cc1

>  <pIC50>
6.20

$$$$
>  <compound>
CCCCCC(=O)OC1=C(c2ccccc2)Sc2ccccc2-n2cccc21

>  <pIC50>
7.63

$$$$
>  <compound>
CN(C)C(=O)OC1=C(c2ccccc2)Sc2c(Cl)cccc2-n2cccc21

>  <pIC50>
8.40

$$$$
>  <compound>
CC(=O)OC1=C(c2ccc(F)cc2)Sc2ccccc2-n2cccc21

>  <pIC50>
7.55

$$$$
>  <compound>
CC(=O)OC1=C(c2ccccc2F)Sc2ccccc2-n2cccc21

>  <pIC50>
7.42

$$$$
>  <compound>
COc1ccc(C2C(=O)c3cccn3-c3ccccc3[S+]2[O-])cc1 (stereo not drawn)

>  <pIC50>
4.64

$$$$
>  <compound>
CC(=O)OC1=C(c2ccccc2)Sc2cc(C)ccc2-n2cccc21

>  <pIC50>
6.95

$$$$
>  <compound>
CCCC(=O)OC1=C(c2ccc(OC)cc2)Sc2ccccc2-n2cccc21

>  <pIC50>
7.56

$$$$
